Reference source for all entries: ChEMBL document CHEMBL1201862

Give GI50 for every item shown.
test system: HT-29; assay: NCI tumour cell line growth inhibition, 48 h
Active and inactive are the calls of the source. Cut-off read from the data, not from the text of the source: active = GI50 up to about 1.1 µM and inactive = higher.

For COCOc1cc(OC)ccc1C=O , what is its reported GI50? 25.6 µM (inactive)

Quick one: Cc1ccc(-c2nc(Cc3n[nH]c(-c4ccc(C)cc4)n3)n[nH]2)cc1 > 100 µM (inactive)

Note, next up: COc1c(-c2nc3ccc(N4CCN(C)CC4)cc3[nH]2)cc(OC)c2[nH]c(CO)nc12 79.8 µM (inactive)

Similarly, CN1CCN2c3ccccc3CC(C#N)(C#N)C2C1 (stereo unspecified) ? > 100 µM (inactive)

Query COc1ccc(CC2c3cc(Oc4cc(CC5c6cc(OC)c(OC)cc6CCN5C)ccc4O)c(OC)cc3CCN2C)cc1 (stereo unspecified) next 2.06 µM (inactive)

Now the compound CCN1CSC(=S)N(CC)C1 41.1 µM (inactive)

====

test system: CAKI-1; assay: NCI tumour cell line growth inhibition, 48 h
The source made the active and inactive calls. Cut-off read from the data, not from the text of the source: active = GI50 up to about 1.1 µM and inactive = higher.
The reply should be one of these categories: True (active), False (inactive)

Outcome logged for O=C1NC(=O)C(F)(n2cc(F)c(=O)[nH]c2=O)C(O)N1 (centres undefined) in this assay: False

Similarly, COc1cccc(NC(=O)C(=O)C(C(C)=O)c2nc3ccc(Cl)cc3nc2O)c1 (centres undefined) ? False

Queued: CCCc1c(C(=O)OCC)[nH]c(C(=O)CCC(=O)c2[nH]c(C(=O)OCC)c(CCC)c2C(=O)OCC)c1C(=O)OCC False

And for O=C([O-])C(O)C(O)C(=O)O.[K+] (centres undefined) [POTASSIUM HYDROGENTARTRATE] ? False

Now try NC(CCP(=O)(O)CCC1C=CC=CC1)C(=O)O (centres undefined) . False

Check N=C(CSS(=O)(=O)O)NC1CC2CCC1C2 (centres undefined) too. False

Now give it for CC(=O)C1C(c2ccc(N(C)C)cc2)c2cc3c(cc2OC1(C)O)OCO3 (centres undefined) too. False

Request: Cc1cc(-c2[nH]c(C(=O)O)cc2I)on1 False

Please do the same for Cc1ccc2[nH]c3[nH]c(=O)[nH]c(=O)c3c2c1 as well. False

How about CCCCCCCCCC[C@@H](OC(C)=O)[C@@H]1CC[C@@H]([C@@H]2CC[C@@H]([C@@H](O)CC#C/C=C/CCCCCCC[C@@]3(Sc4ccccc4)C[C@H](C)OC3=O)O2)O1 ? False

Lookup COCOc1cc(OC)ccc1C=O False

Let us now turn to O=C1c2cccc3cc4ccccc4c(c23)C(=O)N1CCNCCNCCNCCN1C(=O)c2cccc3cc4ccccc4c(c23)C1=O True

Also need O=C(/C=C\c1ccc(Cl)c(Cl)c1)c1ccc(Cl)cc1Cl , thanks. False

What do we get for CCOC(=O)CCC(NC(=O)OCc1ccccc1)C(=O)NC(CCC(=O)OCC)C(=O)NNC(=O)OC(C)(C)C (centres undefined) ? False

Now give it for COc1ccccc1NS(=O)(=O)c1ccc2ncn(NS(=O)(=O)c3ccc(Cl)cc3)c(=O)c2c1 too. False

Can you handle COC(=O)c1c(C)cccc1C1CN=NC12Cc1cc(C)cc(C)c1C2=O (centres undefined) next? False

CCCSC1=N/C(=C\c2ccco2)C(=O)N1 ? False

And O=C(/C=C1\N=C(c2ccccc2)N(c2ccc3c(c2)Sc2cc(N4C(=O)/C(=C/C(=O)/C=C/c5ccccc5)N=C4c4ccccc4)ccc2N3)C1=O)/C=C/c1ccccc1 ? False

How about this compound: COC1CC(OC2OC(CO)C(O)C(O)C2O)/C(=C\C#N)C(O)C1OC (centres undefined) False
